All values here come from patent US20230272055A1.

IC50, inhibition of pSTAT5 reference
Assayed System: T1, human Type 1 mutCALR on Ba/F3 cells expressing MPL and Type 1 mutCALR (human)
T1 chain: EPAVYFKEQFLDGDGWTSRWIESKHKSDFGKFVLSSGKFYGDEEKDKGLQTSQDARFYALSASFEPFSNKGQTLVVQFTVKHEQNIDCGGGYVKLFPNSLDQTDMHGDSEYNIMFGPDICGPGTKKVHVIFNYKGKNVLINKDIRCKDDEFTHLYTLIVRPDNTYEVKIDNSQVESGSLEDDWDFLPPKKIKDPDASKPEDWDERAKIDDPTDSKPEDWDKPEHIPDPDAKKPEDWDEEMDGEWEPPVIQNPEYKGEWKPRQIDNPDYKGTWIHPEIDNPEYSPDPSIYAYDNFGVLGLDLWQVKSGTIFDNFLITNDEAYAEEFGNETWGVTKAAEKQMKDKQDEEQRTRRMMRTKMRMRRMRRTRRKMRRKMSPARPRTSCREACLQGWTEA
Assay Comment: cell-based or functional assay

| Binder | IC50, inhibition of pSTAT5, µg/mL |
| --- | --- |
| anti-mutCALR antibody clone 34 (antibody, human IgG1, lambda, V domains shown, human IgG1) VH: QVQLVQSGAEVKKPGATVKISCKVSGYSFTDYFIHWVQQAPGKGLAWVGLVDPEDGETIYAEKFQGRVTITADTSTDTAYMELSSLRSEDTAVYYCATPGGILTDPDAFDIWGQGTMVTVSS VL: QSALTQPASVSGSPGQSITISCTGTSSDVGGYNYVSWYQQHPGKAPKLMIYEVSNRPSGVSNRFSGSKSGNTASLTISGLQAEDEADYYCSSYTSSSTYVFGTGTKVTVLG | 0.072 |
| anti-mutCALR antibody clone 9 (antibody, human IgG1, lambda, V domains shown, human IgG1) VH: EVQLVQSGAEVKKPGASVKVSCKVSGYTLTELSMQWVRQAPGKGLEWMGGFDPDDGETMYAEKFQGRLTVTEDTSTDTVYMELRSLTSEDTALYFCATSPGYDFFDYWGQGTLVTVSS VL: SYVLTQPPSVSVAPGQTARIPCGGNNIGSKSVHWYQQKPGQAPVLVVYDDRDRPSGIPERFSGSNSGNTATLTINRVEAGDEADYYCQVWDSSNDLLIFGGGTKLTVLG | 0.056 |
| anti-mutCALR antibody clone 39 (antibody, human IgG1, kappa, V domains shown, human IgG1) VH: EVQLVQSGAEVKKPGSSVKVSCKASGGTFSSYAISWVRQAPGQGLEWMGLVDPEDGETIYAEKFQGRVTITADTSTDTAYMELSSLRSEDTAVYYCATEESYGPWGQGTLVTVSS VL: DIQLTQSPSSLSASVGDRVTITCQASQDISNYLDWYQQKPGKAPKLLIYDASNLETGVPSRFSGSGSGTEFTLTISSLQPEDFATYYCQQLNSYPLTFGGGTKLEIKR | 3.97 |
